- ASSAY TARGET: T1, 229E S on HEK293T cells (Human coronavirus 229E, GenBank …)
- T1 construct: source: HEK293T, transiently transfected, on the cell surface
- T1 sequence (P15423 16-1173): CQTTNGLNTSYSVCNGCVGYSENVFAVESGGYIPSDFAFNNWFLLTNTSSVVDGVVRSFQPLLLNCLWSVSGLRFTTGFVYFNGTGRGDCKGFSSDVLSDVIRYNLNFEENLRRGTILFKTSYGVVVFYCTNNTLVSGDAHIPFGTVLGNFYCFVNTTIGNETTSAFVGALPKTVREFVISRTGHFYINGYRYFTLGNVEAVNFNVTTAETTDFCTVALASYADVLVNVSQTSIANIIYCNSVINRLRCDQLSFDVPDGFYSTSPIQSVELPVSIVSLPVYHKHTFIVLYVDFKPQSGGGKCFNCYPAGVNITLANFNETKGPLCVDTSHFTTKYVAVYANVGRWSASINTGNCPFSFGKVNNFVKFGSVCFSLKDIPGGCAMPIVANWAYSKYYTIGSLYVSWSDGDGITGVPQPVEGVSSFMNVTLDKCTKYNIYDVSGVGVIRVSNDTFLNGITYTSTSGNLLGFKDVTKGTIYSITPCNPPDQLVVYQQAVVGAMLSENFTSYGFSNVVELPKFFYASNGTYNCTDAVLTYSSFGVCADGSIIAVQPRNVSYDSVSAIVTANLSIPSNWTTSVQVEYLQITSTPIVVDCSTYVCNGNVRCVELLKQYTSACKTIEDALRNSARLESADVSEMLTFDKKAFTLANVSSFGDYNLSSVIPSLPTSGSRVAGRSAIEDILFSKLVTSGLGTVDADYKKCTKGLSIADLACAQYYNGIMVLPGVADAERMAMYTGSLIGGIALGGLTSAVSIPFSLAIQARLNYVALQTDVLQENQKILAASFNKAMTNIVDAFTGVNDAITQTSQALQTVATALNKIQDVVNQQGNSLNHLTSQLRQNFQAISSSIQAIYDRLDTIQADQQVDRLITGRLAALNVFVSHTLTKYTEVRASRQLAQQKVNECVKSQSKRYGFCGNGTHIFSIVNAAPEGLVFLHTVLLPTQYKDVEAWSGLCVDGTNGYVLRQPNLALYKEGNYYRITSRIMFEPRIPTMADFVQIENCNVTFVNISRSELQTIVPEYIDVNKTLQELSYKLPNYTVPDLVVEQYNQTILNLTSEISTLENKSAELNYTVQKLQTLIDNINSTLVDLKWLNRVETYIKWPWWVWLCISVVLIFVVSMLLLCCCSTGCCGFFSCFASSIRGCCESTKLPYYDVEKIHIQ
- TEST: flow cytometry on cells
- MEASUREMENT PARAMETERS: one partner purified
MEASUREMENT LABEL: binding result

C13B8 mAb (antibody, V domains shown, also called Group 3 mAb; fusion peptide-specific mAb) VH: QVQLQESGPGLVQPSQTLTLTCTVSGDSISNEDYHWTWIRQHPGKGLEWMGYLQYSGNTNYNPSLKSRMTISVDTSKNQFSLRLNSVTAADTAVYFCATSIVLTGMSNKIQPFDYWGQGTLVTVSS VL: SYELTQPPSVSVSPGQMARITCSGEALPKKYAYWYQQKGGQFPVLVIYKDTERPSGIPERFSGSSSGTIVTLTISGVQPEDEADYYCLSADTSGTWVFGGGTKLTVL: binds
C77G12 mAb (antibody, V domains shown, also called Group 3 mAb; fusion peptide-specific mAb) VH: EVQLVESGGGVVQPGRSLRISCAVSGFTFGSYAMHWVRQAPGKGLEWVGVMSSDGHNEYYADSVKGRFTISRDNSRNKLYLEMNNLRVDDTAVFYCARGSDYVDDSPPLHYWGQGTLVTVSS VL: DIQLTQSPSSLSASIGDRVTITCRASQDIANKLAWFQQAPGKAPKSLIYAASRLQSGVPSQFSGSGSGTDFTLTIESLQAGDFATYFCQQYDSFPFTFGPGTKVDVK: binds
VP12E7 mAb (antibody, V domains shown, also called Group 3 mAb; fusion peptide-specific mAb) VH: QVQLVQSGGGVVQPGESLRLSCSGSGFTFNNYIMHWVRQAPGQGLDYVSGIGSDGRNTNYGDSVKGRFTISRDNSKDTLYLQMTSLRAEDTAFYYCVKGLDVLRFLDLSTPSGERLDAFDIWGQGTMVTVSS VL: DIVMTQSPSFLSASVGDRVTITCRASQGISNYLAWYQQKPGKAPHLLIYAASTLQSGVPSRFSGSGSGTEFTLTISSLQPEDFATYYCQQLNSYPLFTFGPGTKVDIE: binds
C13C9 mAb (antibody, V domains shown, also called Group 3 mAb; fusion peptide-specific mAb) VH: EVQLVQSGPEVKKPGTSARVSCKASGFTSKNTALQWVRQARGQPLEWMGWIDISNYITNYAQKFRGRLTITWDLSASMAYMELSSLRSEDTAVYYCAAVGKDDDVLTGGNKYFDHWGQGTLVTVSS VL: SYELTQPPSVSVSPGQTARITCSGDALPKKYAYWYQQKSGQAPVLVIHEDDKRPSGIPGRFSASSSGTTATLTISGAQVEDEADYYCYSTDTNDNHAFGSGTKLTVL: binds

Measured values drawn from paper PMC9348755 for this set.
